Test system: LOC_OS02G17970-cb001;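 further: purified Escherichia coli-expressed rice kinase domain construct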
Measurement description: thermal shift delta Tm vs DMSO control; higher = stronger stabilization (binding)
Stated conditions: 12.5 µM; protein concentration 2 µM
The following compounds are listed with their measured thermal shift delta Tm values.
Use °C as the unit, but write only the number.

// worked examples, thermal shift delta Tm included
COc1cc2c(Nc3ccc(NC(=O)c4ccccc4)cc3)ncnc2cc1OCCCN1CCOCC1; 0.45
Cc1cnc(Nc2ccc(OCCN3CCCC3)cc2)nc1Nc1cccc(S(=O)(=O)NC(C)(C)C)c1; 0.44
CNc1nc(Nc2cn(C(C)(C)C#N)nc2C)ncc1C(F)(F)F; 1.09
C[C@H]1[C@H](C)CC[C@]2(C(=O)O)CC[C@]3(C)C(=CC[C@@H]4[C@@]5(C)C[C@@H](O)[C@H](O)[C@@](C)(CO)[C@@H]5CC[C@]43C)[C@H]12; 0.33
COc1cc2c(Oc3ccc4[nH]c(C)cc4c3F)ncnc2cc1OCCCN1CCCC1; 0.26

Let me check: "O=C(NOCCO)c1ccc2cncn2c1Nc1ccc(I)cc1F" , system LOC_OS02G17970-cb001, measured thermal shift delta Tm is 1.62

Let me check: "O=c1c(O)c(-c2cc(O)c(O)c(O)c2)oc2cc(O)cc(O)c12" , system LOC_OS02G17970-cb001, measured thermal shift delta Tm is 5.74

Let me check: "CC(=O)Nc1nc(C)c(-c2ccc(Cl)c(S(=O)(=O)NCCO)c2)s1" , system LOC_OS02G17970-cb001, measured thermal shift delta Tm is 0.97

Let me check: "C[C@H](CN(C)C)Oc1nc(Nc2cc3cccc(Cl)c3cn2)cnc1C#N" , system LOC_OS02G17970-cb001, measured thermal shift delta Tm is 2.26
